Molecular target: UniProtKB Q96EB6
Sequence (Q96EB6 whole entry): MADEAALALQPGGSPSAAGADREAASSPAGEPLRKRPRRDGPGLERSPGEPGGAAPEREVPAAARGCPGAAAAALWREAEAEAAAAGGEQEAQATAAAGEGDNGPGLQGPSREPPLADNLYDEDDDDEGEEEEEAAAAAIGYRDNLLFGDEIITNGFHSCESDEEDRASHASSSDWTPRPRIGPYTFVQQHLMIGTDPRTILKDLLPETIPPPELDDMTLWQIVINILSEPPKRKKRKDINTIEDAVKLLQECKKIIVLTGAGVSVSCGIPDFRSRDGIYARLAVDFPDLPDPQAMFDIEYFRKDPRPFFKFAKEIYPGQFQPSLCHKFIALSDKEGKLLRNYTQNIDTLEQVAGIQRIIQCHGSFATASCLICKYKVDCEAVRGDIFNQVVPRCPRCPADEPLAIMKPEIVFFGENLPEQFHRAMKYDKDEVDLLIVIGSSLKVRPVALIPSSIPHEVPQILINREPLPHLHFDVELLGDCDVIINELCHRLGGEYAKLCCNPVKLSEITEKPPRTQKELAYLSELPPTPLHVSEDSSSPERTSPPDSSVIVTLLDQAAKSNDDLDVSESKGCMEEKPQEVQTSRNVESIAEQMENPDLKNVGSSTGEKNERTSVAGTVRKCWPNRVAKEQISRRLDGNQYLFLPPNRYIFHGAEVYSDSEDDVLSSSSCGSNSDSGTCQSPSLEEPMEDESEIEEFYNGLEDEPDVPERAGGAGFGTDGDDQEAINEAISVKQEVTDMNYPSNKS
Test: TAMRA based mass spectrometry assay of SIRT1 activity
Type: biochemical
Conditions: TAMRA peptide substrate; concentration giving 150% activation of SIRT1
METRIC: TAMRA EC1.5

>>> df
                               entry_smiles       obs_value
0  Cc1nc(C(=O)Nc2cnc3cc(C)c(-c4ccccc4C(F)(F)F)nn23)c(C)s1  A (EC1.5<1 μM)
1  Cc1nc2c(C)cc(-c3ccccc3C(F)(F)F)nn2c1C(=O)Nc1ccc(F)cn1  A (EC1.5<1 μM)
2  Cc1cc(NC(=O)c2cnc3c(C)cc(-c4ccccc4C(F)(F)F)nn23)ccn1  A (EC1.5<1 μM)
